# EXPERIMENT DESCRIPTION: Selectivity index, ratio of CC50 for human MRC5 cells to IC50 for trypomastigote form of Trypanosoma brucei brucei 427
# Format: functional
Assign a class from recorded Ratio CC50/IC50; defined classes: low-valued: < 1; mid-valued: ≥ 1 and < 10; high-valued: ≥ 10

MOLECULE | QUALITATIVE LABEL
CC1(O)c2ccccc2-c2c1c(OCC(F)(F)F)nc1ccc(Br)cc21 (stereo not drawn) | mid-valued
COc1nc2ccc(Br)cc2c2c1C(C)(OCC(O)Cn1ccc(-c3cccc(C(F)(F)F)c3)n1)c1ccccc1-2 (stereo not drawn) | high-valued
O=C1c2ccccc2-c2c1c(Nc1ccncc1)nc1ccc(Br)cc21 | mid-valued
COc1nc2ccc(Br)cc2c2c1C(C)(OCC(O)Cn1ccnc1)c1ccccc1-2 (stereo not drawn) | mid-valued
CC(O)c1cc(F)ccc1Oc1nc2ccc(NC(=O)Nc3cccc([N+](=O)[O-])c3)cc2cc1Cc1ccccc1 (stereo not drawn) | mid-valued
CSCCC(NC(=O)OC(C)(C)C)C(=O)O/N=C1\c2ccccc2-c2c1c(N1CCN(c3ccccn3)CC1)nc1ccc(Br)cc21 (stereo not drawn) | high-valued
O=[N+]([O-])c1ccc2nc(Oc3ccc(F)cc3C(O)Cn3ccnc3)c(Cc3ccccc3)cc2c1 (stereo not drawn) | high-valued
OC(c1ccccc1)c1c(C(F)(F)F)nc2ccc(Br)cc2c1Br (stereo not drawn) | low-valued
CC(=O)OC1(C)c2ccccc2-c2c1c(-n1ccnc1)nc1ccc(Br)cc21 (stereo not drawn) | mid-valued
COc1ccc(NC(=S)Nc2ccc3nc(Oc4ccc(F)cc4C(C)O)c(Cc4ccccc4)cc3c2)cc1 (stereo not drawn) | high-valued
COc1ccccc1NC(=O)Nc1ccc2nc(Oc3ccc(F)cc3C(C)O)c(Cc3ccccc3)cc2c1 (stereo not drawn) | mid-valued
COc1nc2ccc(Br)cc2cc1C(c1ccccc1)n1ccnc1 (stereo not drawn) | low-valued
COc1nc2ccc(Br)cc2cc1C(c1ccccc1)n1cnc([N+](=O)[O-])c1 (stereo not drawn) | high-valued
CC(C)(C)OC(=O)NCC(=O)O/N=C1\c2ccccc2-c2c1c(N1CCN(c3ccccn3)CC1)nc1ccc(Br)cc21 | high-valued
CC(C)(C)OC(=O)NC(C(=O)O/N=C1\c2ccccc2-c2c1c(N1CCN(c3ccccn3)CC1)nc1ccc(Br)cc21)C(C)(C)C (stereo not drawn) | high-valued
COc1nc2ccc(Br)cc2c2c1C(C)(OCC(O)CN)c1ccccc1-2 (stereo not drawn) | mid-valued
COc1ccccc1NC(=O)NCC(O)COC1(C)c2ccccc2-c2c1c(OC)nc1ccc(Br)cc21 (stereo not drawn) | low-valued

---

# EXPERIMENT DESCRIPTION: Selectivity index, ratio of CC50 for human MRC5 cells to IC50 for trypomastigote form of Trypanosoma brucei brucei 427
# Assay type: functional
Decide using Ratio CC50/IC50 alone. Strictly below 8: 1. Equal to or above 8: -1.

COMPOUND | QUALITATIVE LABEL
CC(C)(C)OC(=O)N1CCCC(C(=O)O/N=C2\c3ccccc3-c3c2c(C(F)(F)F)nc2ccc(Br)cc32)C1 (stereo not drawn) | 1
COc1cccc(N2CCN(CC(O)COC3(C)c4ccccc4-c4c3c(N3CCN(C(c5ccccc5)c5ccccc5)CC3)nc3ccc(Br)cc43)CC2)c1 (stereo not drawn) | -1
COc1nc2ccc(Br)cc2c2c1C(C)(OCC(O)CN1CCN(C(c3ccccc3)c3ccccc3)CC1)c1ccccc1-2 (mixture of isomers) | -1
CC(C)CC(NC(=O)OCC1c2ccccc2-c2ccccc21)C(=O)O/N=C1\c2ccccc2-c2c1c(N1CCN(c3ccccn3)CC1)nc1ccc(Br)cc21 (stereo not drawn) | 1
CCCCC(=O)OC1(C)c2ccccc2-c2c1c(-n1ccnc1)nc1ccc(Br)cc21 (stereo not drawn) | 1
O=[N+]([O-])c1ccc2nc(Oc3ccc(F)cc3C(O)CN3CCCCC3)c(Cc3ccccc3)cc2c1 (stereo not drawn) | 1
CC(NC(=O)OC(C)(C)C)C(=O)O/N=C1\c2ccccc2-c2c1c(N1CCN(c3ccccn3)CC1)nc1ccc(Br)cc21 (stereo not drawn) | -1
CC(C)(C)OC(=O)N1CCCC1C(=O)O/N=C1\c2ccccc2-c2c1c(-n1ccnc1)nc1ccc(Br)cc21 (stereo not drawn) | 1
CC1(OCC2CO2)c2ccccc2-c2c1c(C(F)(F)F)nc1ccc(Br)cc21 (stereo not drawn) | 1
COc1cccc(NC(=S)Nc2ccc3nc(Oc4ccc(F)cc4C(C)O)c(Cc4ccccc4)cc3c2)c1 (stereo not drawn) | -1
CC1(O)c2ccccc2-c2c1c(-n1ccnc1)nc1ccc(Br)cc21 (stereo not drawn) | 1
CC(c1cc(F)ccc1Oc1nc2ccc(-n3cc(-c4ccccc4)nn3)cc2cc1Cc1ccccc1)n1ccnc1 (stereo not drawn) | -1

---

# EXPERIMENT DESCRIPTION: Cytotoxicity against human MRC5 cells assessed as cell viability after 7 days by Alamar blue assay
# Type: cell-based
OBSERVABLE: CC50 at 168 h

COMPOUND | RECORDED MEASUREMENT
COc1nc2ccc(Br)cc2c2c1C(C)(OCC(O)CN1CCN(C(c3ccccc3)c3ccccc3)CC1)c1ccccc1-2 (mixture of isomers) | 17.6 µM
COc1ccccc1NC(=S)Nc1ccc2nc(Oc3ccc(F)cc3C(C)O)c(Cc3ccccc3)cc2c1 (stereo unspecified) | 16 µM
CC(C)(C)OC(=O)NCC(=O)O/N=C1\c2ccccc2-c2c1c(N1CCN(c3ccccn3)CC1)nc1ccc(Br)cc21 | 64 µM
COc1ccccc1NC(=O)NCC(O)COC1(C)c2ccccc2-c2c1c(OC)nc1ccc(Br)cc21 (stereo unspecified) | 5.31 µM
CC(C)CC(NC(=O)OCC1c2ccccc2-c2ccccc21)C(=O)O/N=C1\c2ccccc2-c2c1c(N1CCN(c3ccccn3)CC1)nc1ccc(Br)cc21 (stereo unspecified) | 13.6 µM
COc1ccccc1NC(=O)Nc1ccc2nc(Oc3ccc(F)cc3C(C)O)c(Cc3ccccc3)cc2c1 (stereo unspecified) | 6.21 µM

---

# Test system: Trypanosoma cruzi
# EXPERIMENT DESCRIPTION: Antiprotozoal activity against epimastigote form of Trypanosoma cruzi Tulahuen 2 assessed as parasite growth inhibition measured at day 5
# Assay type: functional, organism-based
# PARTICULARS: Tulahuen 2, 120 h
pIC50: −log10 of the molar value.
// pIC50 lookup, one value per entry
OBSERVABLE: pIC50

COMPOUND | RECORDED MEASUREMENT
O=[N+]([O-])c1ccc2nc(Oc3ccc(F)cc3C(O)CN3CCCCC3)c(Cc3ccccc3)cc2c1 (centres undefined) | 5.70
CCCCC(=O)OC1(C)c2ccccc2-c2c1c(-n1ccnc1)nc1ccc(Br)cc21 (centres undefined) | 5.84
COc1nc2ccc(Br)cc2c2c1C(C)(OCC(O)CN1CCN(C(c3ccccc3)c3ccccc3)CC1)c1ccccc1-2 (mixture of isomers) | 5.23
COc1nc2ccc(Br)cc2c2c1C(C)(OCC(O)CN1CCN(Cc3ccccc3)CC1)c1ccccc1-2 (mixture of isomers) | 5.14
OC(c1ccccc1)c1c(C(F)(F)F)nc2ccc(Br)cc2c1Br (centres undefined) | 5.09
CC1(O)c2ccccc2-c2c1c(OCC(F)(F)F)nc1ccc(Br)cc21 (centres undefined) | 5.16
COc1ccccc1NC(=S)Nc1ccc2nc(Oc3ccc(F)cc3C(C)O)c(Cc3ccccc3)cc2c1 (centres undefined) | 5.36
CC(c1cc(F)ccc1Oc1nc2ccc(-n3cc(-c4ccccc4)nn3)cc2cc1Cc1ccccc1)n1ccnc1 (centres undefined) | 5.71
COc1ccc(NC(=S)Nc2ccc3nc(Oc4ccc(F)cc4C(C)O)c(Cc4ccccc4)cc3c2)cc1 (centres undefined) | 5.24

---

# Tested on: Trypanosoma brucei rhodesiense
# EXPERIMENT DESCRIPTION: Antiprotozoal activity against trypomastigote form of Trypanosoma brucei rhodesiense STIB900 assessed as parasite growth inhibition after 72 hrs by Alamar blue assay
# Assay type: functional, organism-based
# PARTICULARS: STIB900, 72 h
// IC50 lookup, one value per entry

MOLECULE | TESTED TARGET | UNIT ABBREV | IC50
CC(=O)OC1(C)c2ccccc2-c2c1c(-n1ccnc1)nc1ccc(Br)cc21 (stereo not drawn) | Trypanosoma brucei rhodesiense | nM | 7110
O=C1c2ccccc2-c2c1c(N1CCN(c3ccccn3)CC1)nc1ccc(Br)cc21 | Trypanosoma brucei rhodesiense | nM | 5980
COc1nc2ccc(Br)cc2c2c1C(C)(OCC(O)CN)c1ccccc1-2 (stereo not drawn) | Trypanosoma brucei rhodesiense | nM | 250
CC(C)(C)OC(=O)N1CCCC(C(=O)O/N=C2\c3ccccc3-c3c2c(C(F)(F)F)nc2ccc(Br)cc32)C1 (stereo not drawn) | Trypanosoma brucei rhodesiense | nM | 3060
COc1nc2ccc(Br)cc2cc1C(c1ccccc1)n1ccnc1 (stereo not drawn) | Trypanosoma brucei rhodesiense | nM | 8430
CCCC(=O)O/N=C1\c2ccccc2-c2c1c(-n1ccnc1)nc1ccc(Br)cc21 | Trypanosoma brucei rhodesiense | nM | 5140
OC(c1ccccc1)c1c(C(F)(F)F)nc2ccc(Br)cc2c1Br (stereo not drawn) | Trypanosoma brucei rhodesiense | nM | 5940
CC1(OCC2CO2)c2ccccc2-c2c1c(C(F)(F)F)nc1ccc(Br)cc21 (stereo not drawn) | Trypanosoma brucei rhodesiense | nM | 5490
COc1nc2ccc(Br)cc2c2c1C(C)(OCC(O)Cn1ccnc1)c1ccccc1-2 (stereo not drawn) | Trypanosoma brucei rhodesiense | nM | 1170
CC(C)(C)OC(=O)NCC(=O)O/N=C1\c2ccccc2-c2c1c(N1CCN(c3ccccn3)CC1)nc1ccc(Br)cc21 | Trypanosoma brucei rhodesiense | nM | 1200
CC(O)c1cc(F)ccc1Oc1nc2ccc(NC(=O)Nc3cccc([N+](=O)[O-])c3)cc2cc1Cc1ccccc1 (stereo not drawn) | Trypanosoma brucei rhodesiense | nM | 250
COc1cccc(NC(=S)Nc2ccc3nc(Oc4ccc(F)cc4C(C)O)c(Cc4ccccc4)cc3c2)c1 (stereo not drawn) | Trypanosoma brucei rhodesiense | nM | 530
COc1ccccc1NC(=S)Nc1ccc2nc(Oc3ccc(F)cc3C(C)O)c(Cc3ccccc3)cc2c1 (stereo not drawn) | Trypanosoma brucei rhodesiense | nM | 530
CC(C)CC(NC(=O)OCC1c2ccccc2-c2ccccc21)C(=O)O/N=C1\c2ccccc2-c2c1c(N1CCN(c3ccccn3)CC1)nc1ccc(Br)cc21 (stereo not drawn) | Trypanosoma brucei rhodesiense | nM | 1520
CC(NC(=O)OC(C)(C)C)C(=O)O/N=C1\c2ccccc2-c2c1c(N1CCN(c3ccccn3)CC1)nc1ccc(Br)cc21 (stereo not drawn) | Trypanosoma brucei rhodesiense | nM | 1650
COc1ccccc1NC(=O)NCC(O)COC1(C)c2ccccc2-c2c1c(OC)nc1ccc(Br)cc21 (stereo not drawn) | Trypanosoma brucei rhodesiense | nM | 1880
COc1nc2ccc(Br)cc2c2c1C(C)(OCC(O)CN1CCN(C(c3ccccc3)c3ccccc3)CC1)c1ccccc1-2 (mixture of isomers) | Trypanosoma brucei rhodesiense | nM | 1640
COc1ccccc1NC(=O)Nc1ccc2nc(Oc3ccc(F)cc3C(C)O)c(Cc3ccccc3)cc2c1 (stereo not drawn) | Trypanosoma brucei rhodesiense | nM | 250

Data origin: ChEMBL document CHEMBL2375345
